Biological target: T1, PUF4 RNA-binding domain (Saccharomyces cerevisiae, UniProt P25339 537-888)
T1 sequence: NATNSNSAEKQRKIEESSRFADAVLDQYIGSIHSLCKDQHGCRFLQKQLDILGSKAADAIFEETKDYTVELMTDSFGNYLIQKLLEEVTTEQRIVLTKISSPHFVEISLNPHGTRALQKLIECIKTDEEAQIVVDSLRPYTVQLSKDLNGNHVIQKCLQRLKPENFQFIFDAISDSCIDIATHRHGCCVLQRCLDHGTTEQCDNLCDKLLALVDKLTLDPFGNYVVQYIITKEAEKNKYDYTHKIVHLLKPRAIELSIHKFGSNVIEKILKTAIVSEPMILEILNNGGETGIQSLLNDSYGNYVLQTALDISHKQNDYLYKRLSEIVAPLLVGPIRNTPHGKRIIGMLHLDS
Test: Mg; RNA-MaP; 20 mM Na-HEPES pH 7.4, 30 mM KOAc, 0.75 mM MgCl2, 0.1% Tween-20, 5% glycerol, 0.1 mg/mL BSA, 2 mM DTT; 25 C; 0.0125-409.6 nM protein
Conditions: tags: N-His6-TEV cleaved; C-SNAP kept, Cy3B-labelled; label: tethered on chip by stalled RNA polymerase
assay.metric: Kd (nM)
The answer is to be given in nM; state only the numeric part.

Would you please look over these solved cases?
binder: Id_ii_S2_P3E.2_K3.1_C3.2_[C-2A]_[T-1A]_H3.1_A3.1_F3.1_T3.2_[T9A]_[A10T] (ssRNA) RNA: UUUGAUUAAUAUGAUAUCGUUCUUUCUAAUGUAUAUAAUUUCUUUCUCGAUAUCAUAUUAAUCUUU
value.units: nM
Kd: 10.1
--
binder: Ic_S4_P4E.1_K4.1_C4.1_H4.1_A4.1_[A6T]_[T7C]_F4.1_[T8C]_[A9T]_T4.1 (ssRNA) RNA: UUUGACAACUGAUCGUUCUUUCUUGUAUUCCUUUCUUUCUCGAUCAGUUGUCUUU
value.units: nM
Kd: 61.9

[Q] What value of Kd has been recorded for this entry: UCUCUUUGUAUACCUCUCUU (ssRNA) [Ic_S1_P3E.1_K3.1_C3.1_H3.1_A3.1_F3.1_[T7C]_[A8C]_T3.1]
[A] 48.9

[Q] Could you share which Kd value was measured for UCUCUUUGUAUUACUGUCUCUU (ssRNA) [Ib_S1_P5E.1_K5.1_C5.1_H5.1_A5.1_F5.1_[T8C]_[A10G]_T5.1] ?
[A] 71.2

[Q] // Kd lookup, key: UCUCUUUGUGUAAAUCUCUU (ssRNA) [Ib_S1_P3E.1_K3.1_C3.1_H3.1_[A4G]_A3.1_F3.1_[T7A]_T3.1]
[A] 202
